- measurement-protocol: Interconversion / hydrolysis of the lactone form of statins in human plasma of modified pH
- Assay type: in vitro ADME
- details: pH 7.4, 50 μmol/L, 37°C
readout-label: half-life at 50 μmol/L (min)
Answer format: numeric, min implied, no suffix.

Reported half-life at 50 μmol/L for `CC[C@H](C)C(=O)O[C@H]1C[C@H](O)C=C2C=C[C@H](C)[C@H](CC[C@@H]3C[C@@H](O)CC(=O)O3)[C@H]21` was 411

---

- measurement-protocol: Hydrolysis of the lactone form of statins in DMEM culture medium of modified pH
- Assay type: physicochemical
- details: pH 6.8, 50 μmol/L, 37°C
readout-label: half-life at 50 μmol/L

Reported half-life at 50 μmol/L for `CC[C@H](C)C(=O)O[C@H]1C[C@H](O)C=C2C=C[C@H](C)[C@H](CC[C@@H]3C[C@@H](O)CC(=O)O3)[C@H]21` was 17.3 h

---

- measurement-protocol: Hydrolysis of the lactone form of statins in DMEM culture medium of modified pH
- Format: physicochemical
- details: pH 7.2, 50 μmol/L, 37°C
- Protocol: The pH of DMEM culture medium was adjusted to the target values (6.8–7.8) by adding an appropriate volume of either 1.0 N HCl or NaOH to a medium containing 20 mmol/L 4-2-hydroxyethyl-1-piperazineethanesulfonic acid (HEPES) buffer. The pH was measured at incubation temperature (37°C) by Mettler Toledo T50 pH titrator. […] After equilibration, minor adjustment in pH was occasionally required to reach the desired final pH.[35] […]
readout-label: half-life at 50 μmol/L (h)
Answer format: numeric, h implied, no suffix.

Reported half-life at 50 μmol/L for `CC[C@H](C)C(=O)O[C@H]1C[C@H](O)C=C2C=C[C@H](C)[C@H](CC[C@@H]3C[C@@H](O)CC(=O)O3)[C@H]21` was 11.9

---

- measurement-protocol: Hydrolysis of the lactone form of statins in phosphate buffer saline of modified pH
- Assay type: physicochemical
- details: phosphate buffer saline (PBS), pH 6.8, 50 μmol/L, 37°C
readout-label: half-life at 50 μmol/L (h)
Answer format: numeric, h implied, no suffix.

Reported half-life at 50 μmol/L for `CC[C@H](C)C(=O)O[C@H]1C[C@H](O)C=C2C=C[C@H](C)[C@H](CC[C@@H]3C[C@@H](O)CC(=O)O3)[C@H]21` was 21.2

---

- measurement-protocol: Interconversion / hydrolysis of the lactone form of statins in human plasma of modified pH
- Format: in vitro ADME
- details: pH 7.0, 50 μmol/L, 37°C
readout-label: half-life at 50 μmol/L
Could you write the number and then its unit?

Reported half-life at 50 μmol/L for CC[C@H](C)C(=O)O[C@H]1C[C@H](O)C=C2C=C[C@H](C)[C@H](CC[C@@H]3C[C@@H](O)CC(=O)O3)[C@H]21 [PVL, pravastatin lactone] was 7.39 h

---

- measurement-protocol: Hydrolysis of the lactone form of statins in phosphate buffer saline of modified pH
- Type: physicochemical
- details: phosphate buffer saline (PBS), pH 7.4, 50 μmol/L, 37°C
readout-label: half-life at 50 μmol/L (h)
Answer format: numeric, h implied, no suffix.

Reported half-life at 50 μmol/L for `CC[C@H](C)C(=O)O[C@H]1C[C@H](O)C=C2C=C[C@H](C)[C@H](CC[C@@H]3C[C@@H](O)CC(=O)O3)[C@H]21` was 6.89

---

- measurement-protocol: Interconversion / hydrolysis of the lactone form of statins in human plasma of modified pH
- Format: in vitro ADME
- details: pH 6.8, 50 μmol/L, 37°C
readout-label: half-life at 50 μmol/L (h)
Answer format: numeric, h implied, no suffix.

Reported half-life at 50 μmol/L for `CC[C@H](C)C(=O)O[C@H]1C[C@H](O)C=C2C=C[C@H](C)[C@H](CC[C@@H]3C[C@@H](O)CC(=O)O3)[C@H]21` was 8.84

---

- measurement-protocol: Interconversion / hydrolysis of the lactone form of statins in human plasma of modified pH
- Format: in vitro ADME
- details: pH 7.2, 50 μmol/L, 37°C
readout-label: half-life at 50 μmol/L (h)
Answer format: numeric, h implied, no suffix.

Reported half-life at 50 μmol/L for `CC[C@H](C)C(=O)O[C@H]1C[C@H](O)C=C2C=C[C@H](C)[C@H](CC[C@@H]3C[C@@H](O)CC(=O)O3)[C@H]21` was 6.61

---

- measurement-protocol: Hydrolysis of the lactone form of statins in phosphate buffer saline of modified pH
- Format: physicochemical
- details: phosphate buffer saline (PBS), pH 7.8, 50 μmol/L, 37°C
readout-label: half-life at 50 μmol/L (h)
Answer format: numeric, h implied, no suffix.

Reported half-life at 50 μmol/L for CC[C@H](C)C(=O)O[C@H]1C[C@H](O)C=C2C=C[C@H](C)[C@H](CC[C@@H]3C[C@@H](O)CC(=O)O3)[C@H]21 [PVL, pravastatin lactone] was 4.98

---

- measurement-protocol: Hydrolysis of the lactone form of statins in DMEM culture medium of modified pH
- Assay type: physicochemical
- details: pH 7.8, 50 μmol/L, 37°C
- Method: The pH of DMEM culture medium was adjusted to the target values (6.8–7.8) by adding an appropriate volume of either 1.0 N HCl or NaOH to a medium containing 20 mmol/L 4-2-hydroxyethyl-1-piperazineethanesulfonic acid (HEPES) buffer. The pH was measured at incubation temperature (37°C) by Mettler Toledo T50 pH titrator. […] After equilibration, minor adjustment in pH was occasionally required to reach the desired final pH.[35] […]
readout-label: half-life at 50 μmol/L (h)
Answer format: numeric, h implied, no suffix.

Reported half-life at 50 μmol/L for `CC[C@H](C)C(=O)O[C@H]1C[C@H](O)C=C2C=C[C@H](C)[C@H](CC[C@@H]3C[C@@H](O)CC(=O)O3)[C@H]21` was 10.7

---

- measurement-protocol: Hydrolysis of the lactone form of statins in phosphate buffer saline of modified pH
- Format: physicochemical
- details: phosphate buffer saline (PBS), pH 7.6, 50 μmol/L, 37°C
readout-label: half-life at 50 μmol/L (h)
Answer format: numeric, h implied, no suffix.

Reported half-life at 50 μmol/L for CC[C@H](C)C(=O)O[C@H]1C[C@H](O)C=C2C=C[C@H](C)[C@H](CC[C@@H]3C[C@@H](O)CC(=O)O3)[C@H]21 [PVL, pravastatin lactone] was 5.59

---

- measurement-protocol: Hydrolysis of the lactone form of statins in phosphate buffer saline of modified pH
- Type: physicochemical
- details: phosphate buffer saline (PBS), pH 7.0, 50 μmol/L, 37°C
readout-label: half-life at 50 μmol/L (h)
Answer format: numeric, h implied, no suffix.

Reported half-life at 50 μmol/L for CC[C@H](C)C(=O)O[C@H]1C[C@H](O)C=C2C=C[C@H](C)[C@H](CC[C@@H]3C[C@@H](O)CC(=O)O3)[C@H]21 [PVL, pravastatin lactone] was 13
